Tested target: Receptor tyrosine-protein kinase erbB-2 (Homo sapiens, UniProt P04626); also: in other assays of this panel Not Active means under 50% inhibition at 10 µM;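 also: inhibition of HER2 kinase enzyme activity, measured with Poly(Glu:Tyr) as the phosphorylation substrate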
Sequence (P04626 whole entry): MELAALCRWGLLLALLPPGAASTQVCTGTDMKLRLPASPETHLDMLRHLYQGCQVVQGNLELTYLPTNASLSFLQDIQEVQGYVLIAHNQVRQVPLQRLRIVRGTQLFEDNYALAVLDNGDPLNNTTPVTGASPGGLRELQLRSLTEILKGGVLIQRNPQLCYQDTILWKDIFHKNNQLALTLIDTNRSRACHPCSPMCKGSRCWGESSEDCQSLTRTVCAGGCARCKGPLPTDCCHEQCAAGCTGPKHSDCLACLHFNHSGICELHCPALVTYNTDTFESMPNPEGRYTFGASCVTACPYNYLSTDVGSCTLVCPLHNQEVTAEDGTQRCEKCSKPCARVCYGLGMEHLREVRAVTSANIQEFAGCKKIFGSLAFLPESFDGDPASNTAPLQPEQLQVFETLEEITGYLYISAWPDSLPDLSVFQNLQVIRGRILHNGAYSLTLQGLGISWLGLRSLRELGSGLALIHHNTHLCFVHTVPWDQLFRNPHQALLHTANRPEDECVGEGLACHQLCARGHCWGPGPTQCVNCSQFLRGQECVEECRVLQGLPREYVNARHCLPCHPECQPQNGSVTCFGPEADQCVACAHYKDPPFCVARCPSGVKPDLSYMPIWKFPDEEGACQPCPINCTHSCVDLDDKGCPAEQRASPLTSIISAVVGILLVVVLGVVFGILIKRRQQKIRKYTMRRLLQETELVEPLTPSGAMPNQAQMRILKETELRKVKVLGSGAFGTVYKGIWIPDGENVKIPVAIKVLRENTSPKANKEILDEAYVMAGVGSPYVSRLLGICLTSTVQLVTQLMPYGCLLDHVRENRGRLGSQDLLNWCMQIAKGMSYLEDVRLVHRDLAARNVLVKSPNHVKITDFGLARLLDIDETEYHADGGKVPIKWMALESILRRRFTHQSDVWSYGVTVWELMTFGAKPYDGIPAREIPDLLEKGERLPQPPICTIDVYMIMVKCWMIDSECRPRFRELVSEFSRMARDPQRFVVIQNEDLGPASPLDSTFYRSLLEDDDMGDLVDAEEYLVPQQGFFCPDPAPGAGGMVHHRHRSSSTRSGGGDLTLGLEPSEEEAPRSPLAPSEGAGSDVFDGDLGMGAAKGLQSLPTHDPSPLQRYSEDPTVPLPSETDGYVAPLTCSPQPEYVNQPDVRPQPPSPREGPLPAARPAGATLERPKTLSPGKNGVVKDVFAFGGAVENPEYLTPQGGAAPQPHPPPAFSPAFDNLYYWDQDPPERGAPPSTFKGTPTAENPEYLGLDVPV
Assay info: biochemical
Format: cell-based, Insect cells
Condition info: insect cells
Readout: IC50

                                   compound  reported_value
0  C#CC1(O)CC[C@H]2[C@@H]3CCC4=CC(=O)CC[C@@H]4[C@H]3CC[C@@]21CC (some centres undefined)      Not Active
1  C[C@@H]1C[C@H]2[C@@H]3CCC4=CC(=O)C=C[C@]4(C)[C@@]3(F)[C@@H](O)C[C@]2(C)[C@H]1C(=O)CO      Not Active
2  CN(C)[C@@H]1C(O)=C(C(N)=O)C(=O)[C@@]2(O)C(O)=C3C(=O)c4c(O)ccc(Cl)c4[C@@](C)(O)[C@H]3C[C@@H]12      Not Active
3      N#Cc1ccc(C(c2ccc(C#N)cc2)n2cncn2)cc1      Not Active

* * *

Tested target: Substance-K receptor (Homo sapiens, UniProt P21452); also: in other assays of this panel Not Active means under 50% inhibition at 10 µM
Sequence (P21452 whole entry): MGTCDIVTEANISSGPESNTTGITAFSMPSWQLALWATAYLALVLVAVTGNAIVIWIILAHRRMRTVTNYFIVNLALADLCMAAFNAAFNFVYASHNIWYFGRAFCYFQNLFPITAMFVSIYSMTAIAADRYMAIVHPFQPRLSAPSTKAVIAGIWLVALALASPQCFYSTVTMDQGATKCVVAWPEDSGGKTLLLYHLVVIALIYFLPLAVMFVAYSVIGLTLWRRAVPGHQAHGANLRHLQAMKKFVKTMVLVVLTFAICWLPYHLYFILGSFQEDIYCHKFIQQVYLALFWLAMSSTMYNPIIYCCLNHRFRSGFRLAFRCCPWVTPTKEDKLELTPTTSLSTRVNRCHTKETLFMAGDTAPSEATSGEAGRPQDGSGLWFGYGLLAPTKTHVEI
Format: cell membranes, CHO, Membrane
Condition info: cho
Readout: IC50

Here are 5 molecules together with their reported answers.
>>> print(df.to_string())
                                   molecule  readout  reported_value
0  CC1(C)S[C@@H]2[C@H](NC(=O)[C@H](N)c3ccccc3)C(=O)N2[C@H]1C(=O)O [AMPICILLIN]     IC50      Not Active
1  Cn1c(=O)c2nc[nH]c2n(C)c1=O.O [THEOPHYLLINE]     IC50      Not Active
2  Cn1c(=O)c2[nH]cnc2n(C)c1=O.Cn1c(=O)c2[nH]cnc2n(C)c1=O.NCCN [AMINOPHYLLINE]     IC50      Not Active
3  COc1ccc2cc3[n+](cc2c1OC)CCc1cc2c(cc1-3)OCO2.[Cl-] [BERBERINE CHLORIDE]     IC50      Not Active
4  CNCCC(Oc1ccc(C(F)(F)F)cc1)c1ccccc1 (stereo not drawn) [FLUOXETINE]     IC50      Not Active

Assign IC50 to the following record: CCC(=O)O[C@]1(C(=O)CCl)[C@@H](C)C[C@H]2[C@@H]3CCC4=CC(=O)C=C[C@]4(C)[C@@]3(F)[C@@H](O)C[C@@]21C [CLOBETASOL PROPIONATE]
Not Active

Please report the measured IC50 for C[n+]1ccc(-c2cc[n+](C)cc2)cc1.[Cl-].[Cl-] [PARAQUAT DICHLORIDE]
Not Active

Return IC50 for the following molecule: CCN(CC)CCOCCC1=CCC2CC1C2(C)C (stereo not drawn) [MYRTECAINE]
Not Active

* * *

Tested target: Cytochrome P450 2A6 (Homo sapiens, UniProt P11509); also: in other assays of this panel Not Active means under 50% inhibition at 10 µM
Sequence (P11509 whole entry): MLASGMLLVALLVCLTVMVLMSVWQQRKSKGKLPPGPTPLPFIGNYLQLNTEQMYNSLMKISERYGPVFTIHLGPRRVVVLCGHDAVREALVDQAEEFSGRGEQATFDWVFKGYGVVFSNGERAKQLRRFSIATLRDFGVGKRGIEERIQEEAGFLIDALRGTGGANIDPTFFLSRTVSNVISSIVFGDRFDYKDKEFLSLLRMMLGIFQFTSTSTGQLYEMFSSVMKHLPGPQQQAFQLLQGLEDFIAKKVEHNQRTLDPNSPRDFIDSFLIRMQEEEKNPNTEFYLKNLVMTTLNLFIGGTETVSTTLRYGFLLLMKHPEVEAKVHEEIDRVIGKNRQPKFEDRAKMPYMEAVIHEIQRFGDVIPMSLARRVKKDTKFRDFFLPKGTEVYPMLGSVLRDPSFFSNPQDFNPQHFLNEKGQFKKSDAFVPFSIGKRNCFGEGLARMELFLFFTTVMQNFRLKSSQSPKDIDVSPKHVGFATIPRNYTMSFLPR
Condition info: bti-tn-5b1-4
Readout: IC50

Example entries and their recorded answers appear below.
Compound	Readout	Reported value
CO[C@H]1/C=C/O[C@@]2(C)Oc3c(C)c(O)c4c(O)c(c(/C=N/N5CCN(C6CCCC6)CC5)c(O)c4c3C2=O)NC(=O)/C(C)=C\C=C\[C@H](C)[C@H](O)[C@@H](C)[C@@H](O)[C@@H](C)[C@H](OC(C)=O)[C@@H]1C	IC50	Not Active
CN1[C@@H]2CC[C@H]1C[C@@H](OC(=O)C(CO)c1ccccc1)C2 (stereo partly drawn)	IC50	Not Active
COc1cc(N)c(Cl)cc1C(=O)NC1CCN(CCCOc2ccc(F)cc2)CC1OC (stereo not drawn) [CISAPRIDE]	IC50	Not Active
CCCCNc1ccc(C(=O)OCCN(C)C)cc1	IC50	Not Active

Entry CCCOc1ccc(C(=O)OCCN(CC)CC)cc1N needs its IC50 filled in; supply it.
Not Active

* * *

Tested target: Cytochrome P450 1A2 (Homo sapiens); also: in other assays of this panel Not Active means under 50% inhibition at 10 µM
Sequence (P05177 whole entry): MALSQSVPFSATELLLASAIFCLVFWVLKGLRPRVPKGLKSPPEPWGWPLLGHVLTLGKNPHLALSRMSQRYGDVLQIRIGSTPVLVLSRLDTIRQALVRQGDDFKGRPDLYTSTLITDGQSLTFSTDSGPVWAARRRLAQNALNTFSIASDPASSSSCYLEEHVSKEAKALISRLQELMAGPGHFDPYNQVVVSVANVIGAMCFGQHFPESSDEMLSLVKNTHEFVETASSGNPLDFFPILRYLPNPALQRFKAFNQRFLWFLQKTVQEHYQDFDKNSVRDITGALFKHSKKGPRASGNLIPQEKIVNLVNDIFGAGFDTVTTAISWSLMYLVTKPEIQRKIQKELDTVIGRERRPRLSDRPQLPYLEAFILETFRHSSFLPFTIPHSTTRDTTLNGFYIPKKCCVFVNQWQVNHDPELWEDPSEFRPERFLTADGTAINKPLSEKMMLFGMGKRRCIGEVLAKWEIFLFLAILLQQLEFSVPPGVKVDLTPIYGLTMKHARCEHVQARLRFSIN
Consider the following compounds; for each one, report its IC50.
Use µM as the unit, but write only the number.

Item O=c1cc(N2CCOCC2)oc2c(-c3ccccc3)cccc12 : provide IC50
1

Return value of IC50 for input NC(=O)N1C(=O)/C(=C(\O)c2cccs2)c2cc(Cl)ccc21 , no commentary.
1

Complete the entry with IC50 for Clc1ccc(COC(Cn2ccnc2)c2ccc(Cl)cc2Cl)cc1 (stereo not given)
0.3

For the compound Oc1c(Cl)cc(Cl)c(Cl)c1Cc1c(O)c(Cl)cc(Cl)c1Cl , give its reported IC50.
1.31

Answer with the recorded IC50 for the compound listed here: O=C(Nc1ccc(Br)cc1)c1cc(Br)cc(Br)c1O
2

* * *

Tested target: C-C chemokine receptor type 5 (Homo sapiens, UniProt P51681); also: in other assays of this panel Not Active means under 50% inhibition at 10 µM
Sequence (P51681 whole entry): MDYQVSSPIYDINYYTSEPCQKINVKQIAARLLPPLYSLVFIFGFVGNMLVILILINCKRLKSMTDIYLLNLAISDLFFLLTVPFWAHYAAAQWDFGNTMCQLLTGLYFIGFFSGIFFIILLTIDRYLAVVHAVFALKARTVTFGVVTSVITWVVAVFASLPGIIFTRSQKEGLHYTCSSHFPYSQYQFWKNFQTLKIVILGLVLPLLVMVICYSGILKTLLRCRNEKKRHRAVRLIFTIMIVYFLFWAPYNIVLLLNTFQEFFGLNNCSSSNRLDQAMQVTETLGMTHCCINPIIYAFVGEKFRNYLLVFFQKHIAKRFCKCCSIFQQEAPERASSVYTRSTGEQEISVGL
Assay type: cell membranes, Membrane
Condition info: hek293

Compound	IC50
CO[C@@H]1[C@@H](OC)[C@H](C)[C@@](O)(CC(=O)O)O[C@H]1[C@H](C)[C@H]1O[C@@]2(CC[C@@](C)([C@H]3CC[C@@](C)([C@@H]4O[C@@H]([C@H]5O[C@](C)(O)[C@H](C)C[C@@H]5C)C[C@@H]4O[C@@H]4C[C@H](OC)[C@@H](OC)[C@H](C)O4)O3)O2)C[C@H](O)[C@H]1C [MADURAMICIN ACID]	Not Active
COc1ccc(CCN(C)CCCC(C#N)(c2ccc(OC)c(OC)c2)C(C)C)cc1OC (centres undefined)	Not Active
Cn1c(=O)c2c(ncn2CC(O)CO)n(C)c1=O (centres undefined) [DYPHYLLINE]	Not Active
NC1CCN(c2nc3c(cc2F)c(=O)c(C(=O)O)cn3-c2ccc(F)cc2F)C1 (centres undefined) [TOSUFLOXACIN]	Not Active

* * *

Tested target: Melanocortin receptor 4 (Homo sapiens); also: in other assays of this panel Not Active means under 50% inhibition at 10 µM
Sequence (P32245 whole entry): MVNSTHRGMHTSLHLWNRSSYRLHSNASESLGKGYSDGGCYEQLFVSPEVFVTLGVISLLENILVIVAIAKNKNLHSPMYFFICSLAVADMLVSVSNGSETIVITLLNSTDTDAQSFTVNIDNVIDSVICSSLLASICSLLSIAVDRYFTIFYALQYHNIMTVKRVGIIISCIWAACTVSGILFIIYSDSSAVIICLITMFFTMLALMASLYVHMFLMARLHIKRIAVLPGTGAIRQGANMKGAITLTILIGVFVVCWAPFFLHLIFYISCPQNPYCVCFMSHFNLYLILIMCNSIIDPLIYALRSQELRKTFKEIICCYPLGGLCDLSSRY
Format: cell membranes, HEK293, Membrane
Condition info: read-out: Ki
Readout: Ki (µM)
Number in µM, nothing else.

Please list Ki recorded for the molecule Cc1c(C)c2c(c(C)c1O)CCC(C)(CN1CCN(c3cc(N4CCCC4)nc(N4CCCC4)n3)CC1)O2 (stereo unspecified)
55.8

* * *

Tested target: Polyunsaturated fatty acid lipoxygenase ALOX15 (Oryctolagus cuniculus); also: in other assays of this panel Not Active means under 50% inhibition at 10 µM;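 also: inhibition of 15-lipoxygenase enzyme activity measured with linoleic acid as the substrate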
Sequence (P12530 whole entry): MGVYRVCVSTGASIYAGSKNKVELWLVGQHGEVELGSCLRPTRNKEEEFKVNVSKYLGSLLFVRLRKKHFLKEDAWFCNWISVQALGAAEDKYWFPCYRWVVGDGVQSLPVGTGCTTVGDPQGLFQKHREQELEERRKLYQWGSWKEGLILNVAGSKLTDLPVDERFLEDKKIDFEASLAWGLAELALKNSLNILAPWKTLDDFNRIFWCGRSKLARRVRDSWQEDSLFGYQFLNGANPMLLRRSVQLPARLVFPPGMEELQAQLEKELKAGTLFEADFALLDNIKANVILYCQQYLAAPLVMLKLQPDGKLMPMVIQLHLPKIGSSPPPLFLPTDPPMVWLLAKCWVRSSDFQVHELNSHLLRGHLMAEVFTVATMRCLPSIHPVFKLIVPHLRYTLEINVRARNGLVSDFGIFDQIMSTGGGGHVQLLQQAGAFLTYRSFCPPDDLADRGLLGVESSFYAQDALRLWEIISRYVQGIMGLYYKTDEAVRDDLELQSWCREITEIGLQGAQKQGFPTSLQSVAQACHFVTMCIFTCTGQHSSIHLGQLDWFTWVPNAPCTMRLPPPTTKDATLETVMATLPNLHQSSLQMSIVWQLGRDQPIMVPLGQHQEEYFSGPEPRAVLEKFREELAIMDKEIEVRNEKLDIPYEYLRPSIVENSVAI
Assay info: biochemical
Type: tissue-based, Reticulocytes
Condition info: reticulocytes
Readout: IC50

Worked examples, 5 compounds total:
In [3]: df
Out[3]:
                                   compound  reported_value
0  O=C1Nc2ccc(Cl)cc2C(c2ccccc2Cl)=NC1O (centres undefined)      Not Active
1  O.O.O.O.O.O.[Cl-].[Cl-].[Sr+2] [STRONTIUM CHLORIDE HEXAHYDRATE]      Not Active
2  CC(=O)[C@H]1[C@H](C#N)C[C@H]2[C@@H]3CC=C4C[C@@H](O)CC[C@]4(C)[C@H]3CC[C@@]21C      Not Active
3  CCN(CC)CCOCCC1=CCC2CC1C2(C)C (centres undefined)      Not Active
4             COc1ccc2[nH]cc(CCNC(C)=O)c2c1      Not Active

Give IC50 for the following compound: C[n+]1ccc(-c2cc[n+](C)cc2)cc1.[Cl-].[Cl-] [PARAQUAT DICHLORIDE]
Not Active

Using the record for C[C@@H]1C[C@H]2[C@@H]3CCC4=CC(=O)C=C[C@]4(C)[C@@]3(F)[C@@H](O)C[C@]2(C)[C@H]1C(=O)CO , state its measured IC50.
Not Active

Supply recorded IC50 for O=C/C=C/c1ccccc1 here.
Not Active

Note down IC50 recorded for COc1ccc2cc3[n+](cc2c1OC)CCc1cc2c(cc1-3)OCO2.[Cl-] [BERBERINE CHLORIDE]
Not Active

Supply IC50 value. Item: C#CC1(O)CC[C@H]2[C@@H]3CCC4=CC(=O)CC[C@@H]4[C@H]3CC[C@@]21CC (some centres undefined)
Not Active

Supply measured IC50 of C[C@@H]1O[C@@H](O[C@@H]2C=C3CC[C@@H]4[C@H](CC[C@]5(C)[C@@H](c6ccc(=O)oc6)CC[C@]45O)[C@@]3(C)CC2)[C@H](O)[C@H](O)[C@H]1O in your reply.
Not Active

For COC(=O)Nc1nc2ccc([S+]([O-])c3ccccc3)cc2[nH]1 (centres undefined) , write its IC50.
Not Active

State its IC50 for this compound: CC(=O)Oc1ccc(C(c2ccc(OC(C)=O)cc2)c2ccccn2)cc1
Not Active

Supply reported IC50 belonging to this compound: CC(C)=CCC/C(C)=C/CO
Not Active

Please look at this compound and report its IC50: O=C1CN=C(c2ccccc2Cl)c2cc([N+](=O)[O-])ccc2N1
Not Active

Supply recorded IC50 for C=CCc1ccc(O)c(OC)c1 here.
Not Active

Report IC50, nothing else, for this compound: CC(C)Oc1ccc2c(=O)c(-c3ccccc3)coc2c1
Not Active

Quote IC50 reported for C[n+]1ccccc1/C=N/O.[Cl-] [PRALIDOXIME CHLORIDE] please.
Not Active

Indicate the recorded IC50 value for this compound: Cc1cccc(C)c1OCC(C)N (centres undefined)
Not Active
